Where do the numbers come from? From patent US20180008587A1.

Could you please report measured Emax for the items listed next?
biological target: wild-type Androgen Receptor (AR-wt) (Homo sapiens, UniProt P10275); construct: expressed in transfected cells; host or cells: LNCaP (LNCaP AR (cs)); assay: LNCaP-AR-wt AG reporter assay (ARE firefly luciferase, agonist mode); format: cell-based; conditions: read-out: LNCaP-AR-wt AG MAX % Stim
Sequence (P10275 whole entry): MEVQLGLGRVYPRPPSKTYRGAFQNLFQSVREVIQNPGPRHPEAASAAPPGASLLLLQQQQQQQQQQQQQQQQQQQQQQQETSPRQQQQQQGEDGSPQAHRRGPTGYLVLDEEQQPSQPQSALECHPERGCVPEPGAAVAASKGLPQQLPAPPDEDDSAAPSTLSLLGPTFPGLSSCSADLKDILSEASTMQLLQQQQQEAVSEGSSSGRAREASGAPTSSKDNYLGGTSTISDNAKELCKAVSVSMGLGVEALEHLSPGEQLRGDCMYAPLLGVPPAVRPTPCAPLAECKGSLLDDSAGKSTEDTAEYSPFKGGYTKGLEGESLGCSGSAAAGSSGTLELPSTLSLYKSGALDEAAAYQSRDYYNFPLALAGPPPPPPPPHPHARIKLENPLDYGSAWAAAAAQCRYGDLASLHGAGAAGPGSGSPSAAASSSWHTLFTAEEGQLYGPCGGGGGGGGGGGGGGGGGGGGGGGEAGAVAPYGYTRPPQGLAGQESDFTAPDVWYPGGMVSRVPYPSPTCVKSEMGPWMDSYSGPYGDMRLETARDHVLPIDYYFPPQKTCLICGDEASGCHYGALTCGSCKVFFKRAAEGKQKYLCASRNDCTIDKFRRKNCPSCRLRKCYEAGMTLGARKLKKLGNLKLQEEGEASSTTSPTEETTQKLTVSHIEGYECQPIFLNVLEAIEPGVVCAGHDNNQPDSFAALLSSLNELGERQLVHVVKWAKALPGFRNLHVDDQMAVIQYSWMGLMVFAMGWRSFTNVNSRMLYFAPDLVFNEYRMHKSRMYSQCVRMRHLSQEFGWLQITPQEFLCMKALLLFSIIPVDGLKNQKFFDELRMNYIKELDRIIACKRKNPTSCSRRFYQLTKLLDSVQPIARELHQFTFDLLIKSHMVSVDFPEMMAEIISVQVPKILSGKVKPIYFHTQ
Numeric only. Scale: %

Exercise: Identify the reported Emax for the following entry. N#Cc1ncc(N2C(=O)C3(CCC3)N(c3ccc4ccccc4c3)C2=S)cc1C(F)(F)F
Key: -0.2

Exercise: Complete the entry with Emax for N#Cc1ncc(N2C(=O)C3(CCC3)N(c3ccc(OC(F)(F)F)cc3)C2=S)cc1C(F)(F)F
Key: 1.2

Exercise: Quote Emax reported for COCCNC(=O)c1ccc(N2C(=S)N(c3cnc(C#N)c(C(F)(F)F)c3)C(=O)C23CCC3)cc1F please.
Key: -0.1

Exercise: Identify Emax associated with the compound Cc1cncc(-c2ccc(N3C(=S)N(c4cnc(C#N)c(C)c4)C(=O)C34CCC4)cc2)c1
Key: 0.7

Exercise: Input Cc1cc(N2C(=O)C3(CCC3)N(c3ccc(C4CCOCC4)cc3)C2=S)cnc1C#N , output reported Emax.
Key: 1.1

Exercise: Give reported Emax value for Cc1cc(N2C(=O)C3(CCC3)N(c3ccc(OC4CCOCC4)cc3)C2=S)cnc1C#N
Key: 1.1

Exercise: For N#Cc1ncc(N2C(=O)C3(CCC3)N(c3cccc(CO)c3)C2=S)cc1C(F)(F)F , write its Emax.
Key: 0.7

Exercise: Kindly indicate its recorded Emax. Item: N#Cc1ncc(N2C(=O)C3(CCC3)N(c3ccc4ccncc4c3)C2=S)cc1C(F)(F)F
Key: -0.2
